Test System: OsWOX13 (Oryza sativa, UniProt Q5QMM3 1-267)
Sequence: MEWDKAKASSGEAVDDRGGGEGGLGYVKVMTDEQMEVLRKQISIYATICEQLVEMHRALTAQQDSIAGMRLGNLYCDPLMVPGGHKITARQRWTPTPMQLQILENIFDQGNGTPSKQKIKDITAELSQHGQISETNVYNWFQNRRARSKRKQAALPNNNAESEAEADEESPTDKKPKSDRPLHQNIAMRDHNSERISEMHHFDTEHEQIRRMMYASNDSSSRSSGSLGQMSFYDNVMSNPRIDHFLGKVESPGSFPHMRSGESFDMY
Protocol Details: protein-binding microarray (RPBM); PBS, 2% BSA, 51.3 ng/ul salmon testes DNA, 50 uM zinc acetate, 200 nM TF, 25 C, 1 h; high values mean tight binding
Stated Conditions: protein: recombinant; tags: N-terminal polyhistidine and DsRed monomer fusion (pET32a); label: CyDye5-dUTP incorporated in the synthesized complementary strand; 3' TTTTT single-stranded linker to array surface; dsDNA, one strand shown
The full ranking holds about 35,000 sequences; the median of “fluorescence intensity (a.u.)” is about 10,000, and the highest 2% start at about 52,000. What follows is part of a selection rich in the highest values, with near analogues and random picks from the rest.
Measured Parameter: binding signal

> print(dat)
                        biopolymer.sequence                               test.system  measured.parameter                      measured.result
1  GGACGTATATATACATTGATTAATACCAAATCCTCAGCACCGGAGTCACCTAGTGCAG  OsWOX13 (Oryza sativa, UniProt Q5QMM3 1-267)      binding signal   4520 fluorescence intensity (a.u.)
2  AGTTCCCTCTAATTATAATTATAATGTCCTTGGTTTAGGACGGAGTCACCTAGTGCAG  OsWOX13 (Oryza sativa, UniProt Q5QMM3 1-267)      binding signal  16200 fluorescence intensity (a.u.)
3  GCTCCTAACCAATCAGCGCACCCATCGTCCCAAAATCCCCCGGAGTCACCTAGTGCAG  OsWOX13 (Oryza sativa, UniProt Q5QMM3 1-267)      binding signal   8480 fluorescence intensity (a.u.)
4  TTATTAATTCCATAATCAGAACTTTGATGTGATATAACCTCGGAGTCACCTAGTGCAG  OsWOX13 (Oryza sativa, UniProt Q5QMM3 1-267)      binding signal   9130 fluorescence intensity (a.u.)

Pending sequence:
QUERY: What measured binding signal goes with "GTCCTATTTGACGCTTTGATTAGACAACGCTTTGTCAATTCGGAGTCACCTAGTGCAG" ?
RESULT: 12900 fluorescence intensity (a.u.)
